Target under test: binding between ZIKV EDIII and EDIII-specific mAb Z004 (Zika virus, UniProt Q32ZE1, D679E/I627V/V603I/V629A)
Construct: human Fc (C)
Sequence (Q32ZE1 584-695 V603I/I627V/V629A/D679E): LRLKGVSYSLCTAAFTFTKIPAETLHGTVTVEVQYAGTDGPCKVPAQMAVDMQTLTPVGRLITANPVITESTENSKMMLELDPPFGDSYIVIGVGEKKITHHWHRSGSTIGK
Measurement conditions: ELISA; EDIII 1.5 μg/ml, mAb 0.5 μg/ml; read-out: IC50, blocking EDIII-mAb binding, Z004
pIC50: −log10 of the molar value.

{"columns": ["Cpd smiles", "pIC50"],
 "data": [
  ["Cc1cc2c(C(C)C)c(O)c(O)c(/C=N/n3c(=O)[nH][nH]c3=O)c2c(O)c1-c1c(C)cc2c(C(C)C)c(O)c(O)c(/C=N/n3c(=O)[nH][nH]c3=O)c2c1O", 4.35]
]}
